Tested on: HCT-15 colon
Assay: NCI tumour cell line growth inhibition, 48 h
Where a SMILES comes first, the peptide text is derived from it. The star is where a group is joined. Cbz = O=C(OCc1ccccc1)*; NHNH2 = NN*
Listing: TGI of selected compounds
Experimental readout: TGI

compound=C=C(C)C(=O)O[C@@H]1C/C(C)=C\[C@H](OC(C)=O)C[C@](C)(O)/C=C2/OC(=O)C(COC(C)=O)=C21 experimental_readout=TGI value_reported="0.786 µM"
compound="CCOC(=O)C(CNc1ccc(O)cc1)NC(=O)c1ccccc1 (centres undefined)" experimental_readout=TGI value_reported="> 100 µM"
compound="N#CCN(CC#N)C1CC=CCC1N(CC#N)CC#N (centres undefined)" experimental_readout=TGI value_reported="> 100 µM"
compound=CC(=O)N(O)Cc1ccccc1 experimental_readout=TGI value_reported="> 100 µM"
compound=COc1ccc2nc3n(c2c1)C(=O)c1ccccc1-3 experimental_readout=TGI value_reported="> 100 µM"
compound=C(=Nc1ccc(-c2nc3ccccc3[nH]2)cc1)c1ccco1 experimental_readout=TGI value_reported="> 100 µM"
compound="COc1c2c(cc3c1C1(O)Cc4ccc5c(c4C[N+]1(C)CC3)OCO5)OCO2 (centres undefined)" experimental_readout=TGI value_reported="> 100 µM"
compound=O=C(NNS(=O)(=O)c1ccccc1)c1cccnc1 experimental_readout=TGI value_reported="> 100 µM"
compound=N#Cc1c(-c2ccc(Cl)cc2)c2c(N=Nc3c(O)ccc4ccccc34)[nH]nc2[nH]c1=O experimental_readout=TGI value_reported="2.09 µM"
compound=CO[C@@H]1C[C@H](OC(N)=O)[C@@H]2C=C[C@@H]3/C=C(C)/C=C/[C@@H](C)[C@H](/C(C)=C/[C@@H](C)NC(C)=O)OC(=O)/C=C/C=C(C)\C=C\[C@]3(C)[C@@H]2C1 experimental_readout=TGI value_reported="0.717 µM"
compound=O=C(CC(=O)c1cccc(Cl)c1)c1cccc(Cl)c1 experimental_readout=TGI value_reported="> 100 µM"
compound="Cc1ccc(C)c(NC(=O)CC2SC(=Nc3ccccc3Cl)NC2=O)c1 (centres undefined)" experimental_readout=TGI value_reported="> 100 µM"
compound=COc1ccc(-n2c(=O)n(-c3ccccc3)c(=O)n2-c2ccc(OC)cc2)cc1 experimental_readout=TGI value_reported="> 100 µM"
compound=Cc1ccc(-c2nc([P+](c3ccccc3)(c3ccccc3)c3ccccc3)c(Nc3ccccc3)o2)cc1 experimental_readout=TGI value_reported="1.81 µM"
compound=O=C(Nc1cc(Oc2cc(F)c(NC(=O)C3(C(=O)Nc4ccc(F)cc4)CC3)cc2F)ccn1)C1CC1 experimental_readout=TGI value_reported="> 54.2 µM"
compound=Nc1ccccc1C#C/C=C\C#Cc1c(F)c(F)c(F)c(F)c1F experimental_readout=TGI value_reported="30 µM"
compound=O=c1oc2ccc(-c3ccc(F)cc3F)cc2c(=O)n1-c1ccc(Cl)c(C(F)(F)F)c1 experimental_readout=TGI value_reported="8.19 µM"
compound=COc1ccc(Nc2nc3cc(N)cc(N)c3nc2-c2ccccc2)cc1OC experimental_readout=TGI value_reported="> 100 µM"
compound=CCOC(=O)C(O)(C(=O)OCC)c1cc(C(C)(C)C)c(O)c(C(C)(C)C)c1 experimental_readout=TGI value_reported="> 100 µM"
compound=COc1ccccc1NCc1cccc2c(=O)c3ccc(Cl)cc3oc12 experimental_readout=TGI value_reported="> 100 µM"
compound=COc1ccc2c(c1)c(=O)c1c(NCCN(C)C)ccc3nnn2c31 experimental_readout=TGI value_reported="16 µM"
compound=COc1ccc(/C=C\c2cc(OC)c(OC)c(OC)c2)cc1OCC(=O)Nc1ccc2nc(C)sc2c1 experimental_readout=TGI value_reported="10.4 µM"
compound=Cc1cccc2c(N)c3cccc(C(=O)NCC[N+]4(Cc5ccc([N+](=O)[O-])cc5)CCOCC4)c3nc12 experimental_readout=TGI value_reported="> 100 µM"
compound=NNC(=O)c1ccc(OCc2nc3ccccc3[nH]2)cc1 experimental_readout=TGI value_reported="> 100 µM"
compound=COc1ccc(Cn2cc3c(c2-c2ccccc2)CCc2cnoc2-3)cc1N experimental_readout=TGI value_reported="> 100 µM"
compound=Cc1c(C(N)=O)sc2c1c(=O)n(Cc1ccccc1)c1nnc(-c3ccc(Br)cc3)n21 experimental_readout=TGI value_reported="17.9 µM"
compound="COC1CCC(=O)N1CN(C(C)=O)c1ccc(C)cc1 (centres undefined)" experimental_readout=TGI value_reported="> 100 µM"
compound=O=C(Nc1nnc(-c2c(Cl)c(Cl)c(Cl)c(Cl)c2-c2nc3cc(C(=O)c4ccccc4)ccc3[nH]2)o1)c1ccc(Cl)cc1 experimental_readout=TGI value_reported="> 100 µM"
compound=CC(C)(C)OC(=O)Cn1ncn(NC(=O)Cc2ccccc2)c1=O experimental_readout=TGI value_reported="> 10 µM"
compound=NC(=Nc1ccc(N)cc1)C(N)=Nc1ccc(N)cc1 experimental_readout=TGI value_reported="> 100 µM"
compound="COc1cc(C2c3cc4c(cc3[C@@H](Oc3ccc(F)cc3)C3COC(=O)[C@H]23)OCO4)cc(OC)c1O (some centres undefined)" experimental_readout=TGI value_reported="> 100 µM"
compound=CC1=C[C@H]2C[C@H](C)[C@H]3CC[C@H](C)[C@]4(C1)C(=O)C(O)=C(C)C(=O)[C@@]324 experimental_readout=TGI value_reported="> 100 µM"
compound=CN(C)c1ccc(/C=c2/c3ccccc3n3c2c2cc(F)ccc2[n+]3C)cc1 experimental_readout=TGI value_reported="> 57.6 µM"
compound="COc1cccc(C2C3=C(COC3=O)N(CCO)c3cc4c(cc32)OCO4)c1 (centres undefined)" experimental_readout=TGI value_reported="> 50 µM"
compound="CCOC(=O)CCC(NC(=O)OCc1ccccc1)C(=O)NC(CCC(=O)OCC)C(=O)NN (centres undefined) (Cbz-Glu(OEt)-Glu(OEt)-NHNH2; configuration not given here)" experimental_readout=TGI value_reported="> 100 µM"
compound="O=C1c2ccccc2C(=O)c2c(NCC3CO3)ccc(NCC3CO3)c21 (centres undefined)" experimental_readout=TGI value_reported="> 22.5 µM"
compound=COc1ccc2c3c([nH]c2c1)CCN(Cc1ccccc1)C3 experimental_readout=TGI value_reported="39 µM"
compound=O=C1CCCCC/C1=C\c1ccccc1 experimental_readout=TGI value_reported="> 100 µM"
compound=CCOC(=O)/C(=C/c1ccc(N(CCC#N)CCC#N)cc1C)NC(=O)/C=C/c1ccccc1 experimental_readout=TGI value_reported="> 100 µM"

---

Test system: MALME-3M melanoma
Experiment: NCI tumour cell line growth inhibition, 48 h
Experimental readout: TGI (µM)

compound=Cc1cnc(Nc2ccc(N3CCN(C)CC3)cc2)nc1Nc1ccc(Cl)c(NS(=O)(=O)C(C)(C)C)c1 modifier== value_reported=2.62
compound=CSCCCNC(=O)c1csc(-c2csc(CCNC(=O)CNC(=O)CNC(=O)OC(C)(C)C)n2)n1 modifier=> value_reported=100
compound=Cc1cc(Cl)ccc1Nc1nc(C(F)(F)F)ccc1C(=O)N/N=C/c1ccccc1Cl modifier== value_reported=6.18
compound="CCOC(=O)C(C)c1nc2ccc(C(F)(F)F)cc2[nH]c1=O (stereo not given)" modifier=> value_reported=100
compound="COc1cccc(C2C3=C(COC3=O)N(CCO)c3cc4c(cc32)OCO4)c1 (stereo not given)" modifier=> value_reported=50
compound=Cc1ccc(-c2nc(-c3cn(C)c4ncccc34)cs2)cc1 modifier== value_reported=26.5
compound=Nc1c2c(nc3ccccc13)-c1ccccc1NCCC2 modifier== value_reported=32.9
compound=CC(=O)NNc1nc(C)c(C(=O)NNC(=O)C(=O)Nc2ccc([N+](=O)[O-])cc2C#N)s1 modifier=> value_reported=100
compound=Nc1nc(N)c2cc(Sc3cccc(C(F)(F)F)c3)ccc2n1 modifier== value_reported=2.91
compound=Cc1nc2sccn2c1C(=O)NC(=O)Nc1ccc(Cl)cc1 modifier=> value_reported=100
compound=CC1=C[C@H]2C[C@H](C)[C@H]3CC[C@H](C)[C@]4(C1)C(=O)C(O)=C(C)C(=O)[C@@]324 modifier== value_reported=80.7
compound=C#COc1cccc(Nc2ncnc3cc(NC(=O)[C@H](C)Cl)ccc23)c1 modifier=> value_reported=62.5
compound=CCS(=O)(=O)c1ccc(OC)c(Nc2ncc(-c3ccccc3Cl)o2)c1 modifier=> value_reported=25
compound=CN(/N=C/c1cccc2cccnc12)c1c([N+](=O)[O-])cc([N+](=O)[O-])cc1[N+](=O)[O-] modifier=> value_reported=100
compound=CCN(CC)CCn1[nH]c2c3ccc(=O)cc3sc3c(NCCN)ccc1c32 modifier== value_reported=2.73
compound=CCN(CC)CCCNc1[nH]ncc2c(C)c3nc4ccc(OC)cc4c3cc12 modifier== value_reported=2.36
compound=CC(=O)c1cc(C(=O)c2ccc3c(c2)Sc2ccccc2N3)c2c(C)cccn12 modifier=> value_reported=100
compound=N#CN1CC[C@H](C(=O)Nc2cc3cc(C(N)=O)ccc3cn2)C1 modifier== value_reported=0.152
compound=COc1cc(-n2ccnc2)cc(OC)c1OC modifier=> value_reported=100
compound="O=C1CSC2=NC3=C(CSC/C3=C\\c3ccccc3)C(c3ccccc3)N12 (stereo not given)" modifier=> value_reported=100
compound=Cn1c(=S)c2[nH]c(SCCN3C(=O)c4ccccc4C3=O)nc2n(C)c1=O modifier=> value_reported=100
compound=COc1ccc(N(/C=C/C(=O)C(F)(F)F)CC(=O)c2ccc(Cl)cc2)cc1 modifier== value_reported=37.6
compound="CN1C(=O)CC2CCC(=O)N2c2cccnc21 (stereo not given)" modifier=> value_reported=100
compound=O=C(Nc1ccccc1O)c1ccc(NS(=O)(=O)c2cccc3cccnc23)cc1 modifier=> value_reported=25
compound=S=C=NCCc1ccccc1 modifier== value_reported=2.51
